Record form. Attribute: pEC50. Fill in for each entry.
Test system: panel of cancer cell lines
Assay: Cell viability (CellTiter-Glo) dose-response across cancer cell line panel;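 further: after 72 h compound incubation with CellTiter-Glo ATP readout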
Format: cell-based, human
Conditions: Homo sapiens, HCC1143, HCC1143
Description: Next, we explored the effect of CSN5 inhibition on the viability of cancer cells. […] A standardized CellTiter-Glo Assay (Promega #G7570) based on the quantification of ATP was applied according to the manufacturer's protocol to measure the amount of viable cells in culture. […] EC50 values were calculated from the plot of percentage of inhibition versus inhibitor concentration using the nonlinear regression analysis software Origin 7.5SR6 (OriginLab Corp.).
Answers are plain numbers, as −log10 of the molar value.

For every listed record, write down its pEC50.
1. NS(=O)(=O)OC[C@@H]1C[C@@H](n2ccc3c(N[C@H]4CCc5ccccc54)ncnc32)C[C@@H]1O
2. CC(C)C[C@H](NC(=O)[C@H](Cc1ccccc1)NC(=O)c1cnccn1)B(O)O

Response:
[5.78, 7.82]

Entry `COCc1ccccc1NCc1ccc([C@H]2[C@@H](O)CCCc3cncn32)c(-c2ccccc2Cl)c1` , pEC50 reported as 5.22
